Experiment: yeast display, Sf9 membrane polyspecificity reagent, FACS + sequencing; frameworks hold sequencing errors
Reported property: polyreactivity (PSR sort gate)

Recorded results for 8 sequences are shown here.
{"Sequence string": "QVQLVESGGGLVQAGGSLRLSCAASGLIFFTYAMGWYRHAPGKERELVATISRGGRTKYADSVKGRFTISRDNAKNTVYLQMNSLKPEDTAVYYCAAYLSRSYYAYDYWGQGTQVTVSS", "polyreactivity (PSR sort gate)": "high polyreactivity"}
{"Sequence string": "QVQLVESGGGLVQAGGSLRLSCDASGRTFGVYAMGWYRQAPGKERELVAAISTRGGSTYYADSVKGRFTISRDNAKNTVYLQMNSLKPEDTAVYYCAAEQYVWGYWFNYGYWGQGTQVTVSS", "polyreactivity (PSR sort gate)": "high polyreactivity"}
{"Sequence string": "QVQLVESGRGLVQAGGSLRLSCAASGFTFRRYAMVWYRQAPGKERELVAAITRNGGSTYYADSVKGRFTISRDNAKNTVYFQMNRLKPEDTEVYYCNAVLYTPVYDGFDSWGQGTQVTVSS", "polyreactivity (PSR sort gate)": "high polyreactivity"}
{"Sequence string": "QVQLGESGGGLVQAGGSLRLSCAASGSTFTRYGMGWYRQAPGKERELVAAITTSGSSTYYADSVKGRFTISRDNAKNTVYLQMNSLKPEDTAVYYCAADWSSWGFDYWGQGTQVTVSS", "polyreactivity (PSR sort gate)": "low polyreactivity"}
{"Sequence string": "QVQLVESGGGLVQAGGSLRLSCAASGRIFGVYAMGWYRQAPGKERELVAAISFSGGRTYYADSVKGRFTISRDNAKNTVYLQMNSLKPEDTAVYYCAVRGYYSFLYSTAYDYWGQGTQVTVSS", "polyreactivity (PSR sort gate)": "low polyreactivity"}
{"Sequence string": "QVQLVESAGGLVQAGGSLRLSCAASGYTFKLYAMGWSRQAPGKERELVAAIRQRGGTTYYADSVKGRVTISRDNAKNTVYLQMNSLKPEDTAVYYCAVRFYLPNANGGYYYWGQGTQVTVSS", "polyreactivity (PSR sort gate)": "high polyreactivity"}
{"Sequence string": "QVQLVESGGGLVQAGGSLRLSCAASGFTFALYAMGWYRQAPGKERELVAAISSSGGSTYYADSVKGRFTISRDNAKNTVYLQMNSLKPEDTAVYYCNATRPYRYQSHTRTPRRGYWGQGTQVTVSS", "polyreactivity (PSR sort gate)": "high polyreactivity"}
{"Sequence string": "QVQLVESGGGLVQAGGSLRLSSAASGSIFASYAMGWYRQAPGKERELVAAISRSGGSTYYADSVKGRFTISRDNAKNTVYLQMNSLIPEDTAVYYCATGKIREDDYWGQGTQVTVSS", "polyreactivity (PSR sort gate)": "high polyreactivity"}

Next item in the queue.
# input I would be grateful if you could share the reported polyreactivity (PSR sort gate) for "QVQLVESGVGLFQAGGSLRLTCAASGSTFYLNDMGWYRQAPAKERELVAAIDWSGGSTYYADSVKGRFTNSRDNAKYYGYLQMNSLTPEDTAVYYCAARLFYEWRRLDYFIAWDYWGHGTQVTVSS" .
# output low polyreactivity
